Here, each record is paired with measured growth inhibition data.
# assay-summary: NCI Yeast Anticancer Drug Screen. Data for the rad50 strain (AID 155);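 note: 0% = growth of vehicle-only cultures of the same strain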
# condition: S. cerevisiae rad50 strain growth inhibition; at 1.2 µM; hits give high values
# Method: Growth inhibition of yeast strains with defined genetic alterations is measured as a screen for potential anti-cancer activity. Selected strains with alterations in DNA damage repair or cell cycle control were exposed to compounds and growth inhibition was measured relative to vehicle treated controls. The strain used in this assay is rad50
About 79,000 compounds went through this panel and 15% of them were active in at least one assay; those are over-represented in the sample as a whole.
Note: unit % is implicit; provide only the numeric part.

CSc1nnc(SC)nn1 :: -13
CC(=O)OCC(C)Cc1cc2c(cc1Br)OCO2 (stereo unspecified) :: -16
CCOC1=C/C(=N\Nc2ccc([N+](=O)[O-])cc2)CCC1 :: 3
CCOC(=N)c1ccc(O)c(OC)c1 :: -1
CC1=C(C(=O)NCc2ccccc2)C(c2ccccc2)C(C(=O)NCc2ccccc2)=C(C)N1 :: -14
Cc1cc2c3ccccc3c3ccccc3c2nn1 :: 5

The compound listed as `COc1ccc(/C=C/C(=O)c2ccccc2)cc1OC` has a reported growth inhibition of 12

The reported growth inhibition of the compound `CCCCOP(=O)(CCCP(=O)(OCCCC)OCCCC)OCCCC` was -1

Entry under test: `Cc1c(C)c(C)c(CSC(=N)N)c(C)c1C` . Its growth inhibition was -13

Just so you know, measured growth inhibition for `Nc1cc(N)c(N=Nc2cccc3c(S(=O)(=O)O)cccc23)cc1N=Nc1cc([N+](=O)[O-])ccc1O` came out at 15

The compound listed as CCCCCCCCCCCC(O)S(=O)(=O)O (stereo unspecified) has a reported growth inhibition of 4

For this compound ( Nc1nc(N)c2nc(CNc3ccc(C(=O)NC(CCC(=O)O)C(=O)O)cc3F)cnc2n1 (stereo unspecified) ), measured growth inhibition is 7

Lab book: growth inhibition of `Cc1nc(-c2cc3cc([N+](=O)[O-])ccc3oc2=O)cs1` noted as 20

Noted for `Cc1c2ccnc(C(=O)NCCN(C)C)c2cc2c3cc(O)ccc3n(C)c12` : its growth inhibition reads 1

growth inhibition measured on `O=[N+]([O-])c1cc[n+]([O-])cc1` = -6

Record summary for `Cc1cc2c(cc1C)[n+]([O-])c(-c1nc3ccccc3s1)c(N)[n+]2[O-]` : reported growth inhibition = 0

---

Entries and their growth inhibition
# assay-summary: NCI Yeast Anticancer Drug Screen. Data for the bub3 strain (AID 167)
# condition: S. cerevisiae bub3 mutant strain, at 5.0 µM (retest, dose inferred, filed as 0.5), hits give high values
Compounds without any hit were thinned out: in the full panel of roughly 79,000, 15% have a hit.
Write the answer as a number in %, unit excluded.

Below are worked cases with known answers.
CCCCOCn1c(=O)[nH]c(=O)c2cc(Br)ccc21 :: 23
CC(NCCN(C)C)C1CCC2C3CCc4cc(O)ccc4C3CCC12C (configuration not stated) :: -4
CCCCNC1CCC2(SCCS2)c2[nH]c3ccccc3c21 (configuration not stated) :: -16
N#CC1=C(N)N(/N=C/c2ccccc2)C(c2ccccc2)C1(C#N)C#N (configuration not stated) :: 13
Cc1cc(S(=O)(=O)Nc2nnc3cnc4ccccc4n23)c(S)cc1Cl :: 11

Briefly, growth inhibition measured for `CCN(CC)CCNc1ccc2ncn3c4cc(OC)c(OC)c(=O)c4c(O)c1c23` : 11

Measured growth inhibition of CC(C)C(C)/C=C\C(C)C1CCC2C3=CC=C4CC(O)CCC4(C)C3CCC21C (configuration not stated) : 99

The value of growth inhibition measured for the compound `CCO/C(C)=C(/C#N)C(N)=S` turned out to be 4

Value of measured growth inhibition for the entry `CN1CCN(C(=O)/C=C/C(=O)c2ccccc2)CC1` : 7

Field growth inhibition (entry `CSc1nnc(SC)nn1` ) reads 34

Form: compound = `CCCCCOC(=S)SC(=O)OCC` ; growth inhibition = 55

Field growth inhibition (entry `COc1ccc(/C=C2\NC(=S)N(/C=C3\C(=O)Oc4ccccc4C3=O)C2=O)cc1` ) reads -5
